# credit: patent US20240400564A1

target: UniProt:Q12809; assay: Patch clamp assay (hERG tail currents, whole-cell); conditions: 10 μM compound
Sequence (Q12809 whole entry): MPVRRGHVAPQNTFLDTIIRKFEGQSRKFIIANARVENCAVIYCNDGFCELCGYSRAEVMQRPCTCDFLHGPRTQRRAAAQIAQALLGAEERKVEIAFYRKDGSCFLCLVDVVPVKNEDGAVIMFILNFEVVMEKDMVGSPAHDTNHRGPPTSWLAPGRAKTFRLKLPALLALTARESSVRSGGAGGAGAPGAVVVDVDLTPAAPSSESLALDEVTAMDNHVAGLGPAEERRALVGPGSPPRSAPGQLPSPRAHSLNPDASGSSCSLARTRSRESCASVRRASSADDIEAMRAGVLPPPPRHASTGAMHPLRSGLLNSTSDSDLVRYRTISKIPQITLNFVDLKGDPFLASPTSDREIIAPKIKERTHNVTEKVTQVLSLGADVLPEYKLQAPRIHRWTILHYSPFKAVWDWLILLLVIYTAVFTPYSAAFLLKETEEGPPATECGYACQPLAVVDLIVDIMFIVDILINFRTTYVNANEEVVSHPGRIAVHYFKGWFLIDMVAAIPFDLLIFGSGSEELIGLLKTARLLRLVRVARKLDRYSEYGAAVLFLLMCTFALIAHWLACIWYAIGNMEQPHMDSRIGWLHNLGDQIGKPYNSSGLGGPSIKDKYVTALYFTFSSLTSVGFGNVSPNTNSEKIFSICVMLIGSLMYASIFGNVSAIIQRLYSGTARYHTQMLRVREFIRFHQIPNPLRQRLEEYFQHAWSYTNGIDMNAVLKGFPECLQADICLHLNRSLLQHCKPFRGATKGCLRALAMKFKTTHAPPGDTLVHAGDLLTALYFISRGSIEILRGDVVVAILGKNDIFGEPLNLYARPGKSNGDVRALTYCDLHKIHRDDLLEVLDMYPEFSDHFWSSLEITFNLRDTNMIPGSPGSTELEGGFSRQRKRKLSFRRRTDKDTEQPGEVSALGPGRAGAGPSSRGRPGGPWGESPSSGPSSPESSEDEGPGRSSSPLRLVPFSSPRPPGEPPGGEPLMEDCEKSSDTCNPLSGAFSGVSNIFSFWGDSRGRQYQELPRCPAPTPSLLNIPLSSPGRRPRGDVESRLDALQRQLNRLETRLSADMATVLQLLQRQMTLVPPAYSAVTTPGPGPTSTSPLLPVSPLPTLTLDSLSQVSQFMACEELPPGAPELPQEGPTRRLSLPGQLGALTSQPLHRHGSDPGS
experimentalReadout: hERG % Remaining

[[record]]
smilesentry = "CCS(=O)(=O)N[C@@H]1CC[C@@H](CN2CCC3(CC2)CN(c2ncncc2Oc2ccc(F)cc2C(=O)N(C(C)C)C2CC2)C3)OC1"
result = "+++ (≥66%)"

[[record]]
smilesentry = "CC(C)N(CC(F)(F)F)C(=O)c1cc(F)ccc1Oc1cncnc1N1CC2(CCN(C[C@@H]3CC[C@@H](NS(=O)(=O)N(C)C)CO3)CC2)C1"
result = "+++ (≥66%)"

[[record]]
smilesentry = "CCN(C(=O)c1cc(F)ccc1Oc1cncnc1N1CC2(CCN(C[C@@H]3CC[C@@H](NS(C)(=O)=O)CO3)CC2)C1)C(C)C"
result = "+++ (≥66%)"

